Test system: Escherichia coli TOP10;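 further: peptides expressed intracellularly from a pBAD plasmid library in pooled LB shake-flask culture, induced with 0.3% L-arabinose, DNA abundance read by NGS, three biological replicates, DESeq2 with apeglm shrinkage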
test: shrunken log2 fold change of peptide-encoding DNA abundance (4.5 h post-induction vs induction); higher = less antimicrobial activity (less host growth inhibition)
condition-parameters: time post-induction: 4.5 h; library: site-saturation at positions 5, 18, 19, 20
property: shrunken log2 fold change
Quick one: just the number, no unit, thanks!

Lookup: For the sequence `RRIRFRPPRLPRPRPRPGLFPRP` , give its reported shrunken log2 fold change.
Found: -0.143

Lookup: For the sequence `RRIRDRPPRLPRPRPRPTKPPRP` , give its reported shrunken log2 fold change.
Found: -0.23

Lookup: For the sequence `RRIRFRPPRLPRPRPRPYERPRP` , give its reported shrunken log2 fold change.
Found: -0.119

Lookup: For the sequence `RRIRDRPPRLPRPRPRPTAAPRP` , give its reported shrunken log2 fold change.
Found: 0.457

Lookup: For the sequence `RRIRWRPPRLPRPRPRPRVIPRP` , give its reported shrunken log2 fold change.
Found: -0.233

Lookup: For the sequence `RRIRYRPPRLPRPRPRPWRKPRP` , give its reported shrunken log2 fold change.
Found: -0.296

Lookup: For the sequence `RRIRGRPPRLPRPRPRPQLGPRP` , give its reported shrunken log2 fold change.
Found: 0.649

Lookup: For the sequence `RRIRLRPPRLPRPRPRPQFPPRP` , give its reported shrunken log2 fold change.
Found: 0.172

Lookup: For the sequence `RRIRLRPPRLPRPRPRPYYAPRP` , give its reported shrunken log2 fold change.
Found: -0.484

Lookup: For the sequence `RRIRARPPRLPRPRPRPLLVPRP` , give its reported shrunken log2 fold change.
Found: 0.284

Lookup: For the sequence `RRIRLRPPRLPRPRPRPTLHPRP` , give its reported shrunken log2 fold change.
Found: 0.18

Lookup: For the sequence `RRIRKRPPRLPRPRPRPLDFPRP` , give its reported shrunken log2 fold change.
Found: 0.188

Lookup: For the sequence `RRIRHRPPRLPRPRPRPFLLPRP` , give its reported shrunken log2 fold change.
Found: -0.502

Lookup: For the sequence `RRIRLRPPRLPRPRPRPLADPRP` , give its reported shrunken log2 fold change.
Found: -0.0654

Lookup: For the sequence `RRIRSRPPRLPRPRPRPWWLPRP` , give its reported shrunken log2 fold change.
Found: 0.0261

Lookup: For the sequence `RRIRWRPPRLPRPRPRPYQGPRP` , give its reported shrunken log2 fold change.
Found: -0.0161

Lookup: For the sequence `RRIRERPPRLPRPRPRPFVEPRP` , give its reported shrunken log2 fold change.
Found: 0.0315

Lookup: For the sequence `RRIRKRPPRLPRPRPRPDDSPRP` , give its reported shrunken log2 fold change.
Found: -0.0813

Lookup: For the sequence `RRIRLRPPRLPRPRPRPGSPPRP` , give its reported shrunken log2 fold change.
Found: 0.475

Lookup: For the sequence `RRIRVRPPRLPRPRPRPASSPRP` , give its reported shrunken log2 fold change.
Found: -0.122

Lookup: For the sequence `RRIRFRPPRLPRPRPRPVWCPRP` , give its reported shrunken log2 fold change.
Found: -0.158

Lookup: For the sequence `RRIRPRPPRLPRPRPRPAFCPRP` , give its reported shrunken log2 fold change.
Found: 0.104

Lookup: For the sequence `RRIRKRPPRLPRPRPRPDLAPRP` , give its reported shrunken log2 fold change.
Found: 0.042

Lookup: For the sequence `RRIRIRPPRLPRPRPRPKFDPRP` , give its reported shrunken log2 fold change.
Found: -0.18

Lookup: For the sequence `RRIRDRPPRLPRPRPRPGYDPRP` , give its reported shrunken log2 fold change.
Found: 0.0286

Lookup: For the sequence `RRIRFRPPRLPRPRPRPCEFPRP` , give its reported shrunken log2 fold change.
Found: 0.0635

Lookup: For the sequence `RRIRTRPPRLPRPRPRPINCPRP` , give its reported shrunken log2 fold change.
Found: 0.00543

Lookup: For the sequence `RRIRTRPPRLPRPRPRPLQMPRP` , give its reported shrunken log2 fold change.
Found: 0.2

Lookup: For the sequence `RRIRDRPPRLPRPRPRPGRCPRP` , give its reported shrunken log2 fold change.
Found: 0.53

Lookup: For the sequence `RRIRSRPPRLPRPRPRPLDKPRP` , give its reported shrunken log2 fold change.
Found: -0.233

Lookup: For the sequence `RRIRERPPRLPRPRPRPDYKPRP` , give its reported shrunken log2 fold change.
Found: -0.31

Lookup: For the sequence `RRIRIRPPRLPRPRPRPQRIPRP` , give its reported shrunken log2 fold change.
Found: -0.536

Lookup: For the sequence `RRIRLRPPRLPRPRPRPWLVPRP` , give its reported shrunken log2 fold change.
Found: -0.0391

Lookup: For the sequence `RRIRERPPRLPRPRPRPVDDPRP` , give its reported shrunken log2 fold change.
Found: 0.133

Lookup: For the sequence `RRIRRRPPRLPRPRPRPILMPRP` , give its reported shrunken log2 fold change.
Found: -0.00531

Lookup: For the sequence `RRIRPRPPRLPRPRPRPDQPPRP` , give its reported shrunken log2 fold change.
Found: -0.0572

Lookup: For the sequence `RRIRGRPPRLPRPRPRPCKVPRP` , give its reported shrunken log2 fold change.
Found: 0.00141

Lookup: For the sequence `RRIRRRPPRLPRPRPRPMKNPRP` , give its reported shrunken log2 fold change.
Found: 0.298

Source of measurements: the supplement of paper PMC9112550
